ENDPOINT: Tryptophan fluorescence emission maximum, free peptide (nm)
Express it in nm; write the number only.

So, "H-GLWRALWRLLRSLWRLLWK-OH" ? Its Tryptophan fluorescence emission maximum, free peptide was 348

* * *

ENDPOINT: Tryptophan fluorescence emission maximum with siRNA (nm)
Could you give me the number in nm? Just the number is fine.

Entry "H-GLWRALWRLLRSLWRLLWK-OH" — recorded Tryptophan fluorescence emission maximum with siRNA = 340

Where do these numbers come from? They come from paper PMC5410048.
